target: Cathepsin B (Homo sapiens, UniProt P07858); assay: Inhibition of human liver cathepsin B using RR-AMC as substrate preincubated for 30 mins followed by substrate addition and further incubated for 30 mins under shaking condition by fluorescence assay; format: tissue-based
MEASURE_NAME: IC50 (µM)
Answers are plain numbers, in µM.

Problem: Hello, I am looking for reported IC50 with Cathepsin B (Homo sapiens, UniProt P07858) for COc1cc(/C=C/C(=O)c2ccco2)ccc1O . Could you help?
Result: 20.6

* * *

molecular target: Calpain-1 catalytic subunit (Homo sapiens, UniProt P07384); experiment: Inhibition of human erythrocytes mu-calpain using Pep1 as substrate incubated for 30 mins under shaking condition in presence of CaCl2 by fluorescence assay; parameters: species or system Erythrocyte
Sequence (P07384 whole entry): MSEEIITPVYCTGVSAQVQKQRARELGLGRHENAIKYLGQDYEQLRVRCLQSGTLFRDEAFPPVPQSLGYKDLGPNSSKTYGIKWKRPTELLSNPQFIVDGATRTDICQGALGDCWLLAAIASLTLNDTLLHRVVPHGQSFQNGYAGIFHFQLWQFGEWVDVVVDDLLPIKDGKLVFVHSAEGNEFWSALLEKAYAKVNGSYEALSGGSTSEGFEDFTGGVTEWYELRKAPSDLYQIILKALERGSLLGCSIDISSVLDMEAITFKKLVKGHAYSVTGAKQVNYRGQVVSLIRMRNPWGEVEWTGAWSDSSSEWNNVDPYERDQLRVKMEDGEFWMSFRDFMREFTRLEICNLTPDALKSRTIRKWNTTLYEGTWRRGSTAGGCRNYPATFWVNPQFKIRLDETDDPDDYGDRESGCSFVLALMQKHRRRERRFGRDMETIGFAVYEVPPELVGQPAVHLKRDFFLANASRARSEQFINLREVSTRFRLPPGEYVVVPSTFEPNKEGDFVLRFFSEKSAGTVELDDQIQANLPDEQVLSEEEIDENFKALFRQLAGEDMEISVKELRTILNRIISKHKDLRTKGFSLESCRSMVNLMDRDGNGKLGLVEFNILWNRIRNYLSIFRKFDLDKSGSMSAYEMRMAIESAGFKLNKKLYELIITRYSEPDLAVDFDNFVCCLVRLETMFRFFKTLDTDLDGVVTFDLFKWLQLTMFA
Peptide text beside a SMILES is read from it. * marks the point of attachment. Cbz = O=C(OCc1ccccc1)*; CH2F = FC*
So I've got a bunch of compounds here, and I need their IC50 values.
Give bare numbers, in µM.

Worked cases, answers included:
COc1ccccc1/C=C/C=C/C(=O)c1cccnc1	19.1
O=C(/C=C/c1ccc(O)c2ccccc12)c1ccc(O)cc1O	18.8
CCOc1cc(O)ccc1C(=O)/C=C/C=C/c1ccccc1OC	13
COc1ccc(/C=C/C(=O)c2ccc(O)cc2)c2ccccc12	10.2
COc1cc(/C=C/C=C/C(=O)c2ccc(O)cc2)ccc1O	16.8
COc1ccc(/C=C/C(=O)/C=C/c2ccc(O)cc2OC)cc1	46.6

Provide reported IC50 for each item, in the same order as listed.
1. O=C(/C=C/c1ccc(O)c2ccccc12)c1ccc(O)cc1
2. COc1ccccc1/C=C/C=C/C(=O)c1ccc(O)cc1
3. COc1cc(O)ccc1C(=O)/C=C/c1ccc(O)c2ccccc12
4. CCCC[C@@H](C=O)NC(=O)[C@H](CC(C)C)NC(=O)OCc1ccccc1
5. CCOC(=O)[C@H]1O[C@@H]1C(=O)N[C@@H](CC(C)C)C(=O)NCCC(C)C
6. O=C(/C=C/c1ccc(O)c2ccccc12)c1ccco1
7. O=C(N[C@@H](Cc1ccccc1)C(=O)N[C@@H](Cc1ccccc1)C(=O)CF)OCc1ccccc1 (Cbz-Phe-Phe-CH2F)

Result:
1. 69.6
2. 13.7
3. 23.8
4. 0.297
5. 62.3
6. 40.9
7. 0.397
